Test system: CP191
Test: qHTS profiling for inhibitors of Plasmodium falciparum proliferation (AID 504749); further: nearly all actives have a fitted effect of over 60% in size; further: potency means the concentration at half of the fitted maximal effect
Conditions: P. falciparum in erythrocytes, SYBR Green DNA, 72 h; series mostly up to 28.7 µM
Experimental: NIH National Institute of Allergy and Infectious Diseases [NIAID] NIH Chemical Genomics Center [NCGC] […] Because mature erythrocytes lack DNA, only Plasmodium-derived DNA is detected. NCGC Assay Protocol Summary: The SYBR Green viability assay was adapted from a method described previously (Plouffe et al., 2008). […] The following morning, fluorescence intensity at 485(14) nm excitation and 535(25) nm emission wavelengths was measured on an EnVision (Perkin Elmer) plate reader. […]
Records with an inconclusive call do not appear. The source made the active and inactive calls. The call rests on the fitted dose curve; in most records, active means well fitted inhibition curve with a large enough effect; inconclusive means small, poorly fitted or top-dose-only effect; inactive means flat fitted curve, though single readings scatter.
METRIC: Potency

| MOLECULE | Potency |
| --- | --- |
| CCCCCCc1ccc(O)cc1O | inactive |
| CCCCN1CCCC1C(=O)Nc1c(C)cc(C)cc1C (stereo not drawn) | inactive |
| O=C(COc1ccc(Cl)cc1)N1CCN(Cc2ccc3c(c2)OCO3)CC1 | inactive |
| CCN1CCN(c2cc3c(cc2F)c(=O)c(C(=O)O)cn3C2CC2)CC1 | inactive |
| C[C@H]1[C@H](NC(=O)/C(=N/OC(C)(C)C(=O)O)c2csc(N)n2)C(=O)N1S(=O)(=O)O (stereo in doubt) | inactive |

Hi! Can you tell me Potency for each of these molecules?
1. CC(=O)N(O)CCCCCNC(=O)CCC(=O)N(O)CCCCCNC(=O)CCC(=O)N(O)CCCCCN
2. CCCCC(CC)CN=C(N)NC(N)=NCCCCCCN=C(N)NC(N)=NCC(CC)CCCC (stereo not drawn)
3. Cc1cccc(C)c1NC(=O)CN1CCN(CCCC(c2ccc(F)cc2)c2ccc(F)cc2)CC1

## Result
1: inactive; 2: 1 µM (active); 3: inactive

Lab note: each molecule below needs its Potency filled in.
1. CCN1CCCC1=O
2. O=C(OCCOCCO)c1ccccc1Nc1cccc(C(F)(F)F)c1
3. O=C(O)CNC(=O)c1ccccc1
4. CC1=C(C(=O)OC(C)C)C(c2cccc([N+](=O)[O-])c2)C(C(=O)OC2CN(C(c3ccccc3)c3ccccc3)C2)=C(N)N1 (stereo not drawn)
5. CO/N=C1\CN(c2nc3c(cc2F)c(=O)c(C(=O)O)cn3C2CC2)CC1CN (stereo not drawn)
6. c1ccc(-c2ccc(C(c3ccccc3)n3ccnc3)cc2)cc1 (stereo not drawn)
7. C[C@]12CC[C@@H]3c4ccc(O)cc4CC[C@H]3[C@@H]1CC[C@@H]2O

## Result
1: inactive; 2: inactive; 3: inactive; 4: 7.08 µM (active); 5: 8.91 µM (active); 6: 11.2 µM (active); 7: inactive

Give me Potency for each of these molecules, listed below.
1. CCOc1ccc2nc3cc(N)ccc3c(N)c2c1
2. COc1cc(C(=S)N2CCOCC2)cc(OC)c1OC
3. N[C@@H](Cc1cnc[nH]1)C(=O)O
4. CC(C)(C(=O)c1cccnc1)c1cccnc1
5. C=CCc1ccc(O)c(OC)c1

## Result
5.01 µM (active)
inactive
inactive
inactive
inactive

For the 3 molecules below, give their Potency values.
1. C[C@H](O)C(=O)Nc1c(I)c(C(=O)NC(CO)CO)c(I)c(C(=O)NC(CO)CO)c1I
2. Cc1cc(=O)n(-c2ccccc2)n1C
3. Cc1c(C)n(CCN(C)C)c2ccc(C(=O)OCCN(C)C)cc12

## Result
inactive
inactive
inactive

====

Experiment: qHTS of pediatric cancer cell lines to identify multiple opportunities for drug repurposing: Primary screen for RD cells (AID 1347104);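 further: plate controls were DMSO for no effect and bortezomib for full effect; nearly all actives have a fitted effect of over 55% in size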
Conditions: RD rhabdomyosarcoma viability, CellTiter-Glo luminescence, 48 h; series mostly up to 46 µM
Records with an inconclusive call do not appear. Calls of active or inactive are those of the source. Calls come from the whole dose curve; as a rule, active = well fitted cell-killing curve with a large enough effect; inconclusive = small, poorly fitted or top-dose-only effect; inactive = flat fitted curve, though single readings scatter.
// allowed return values: true (active), false (inactive)

Examples from the recorded data:
| COMPOUND | GROUP |
| --- | --- |
| CCCN1CCCC[C@H]1C(=O)Nc1c(C)cccc1C | false |
| CN=C(NC#N)Nc1ccc(C2=NNC(=O)CC2C)cc1 (stereo not drawn) | false |
| C[C@]12C=CC(=O)C=C1CC[C@@H]1[C@@H]2[C@@H](O)C[C@@]2(C)[C@H]1CC[C@]2(O)C(=O)CO | false |

## Task Returns: the outcome recorded for O=c1[nH]c(=O)n([C@H]2CCCO2)cc1F in this assay.
## Result false

## Task Lab log entry: CN=C(NC#N)NCCSCc1csc(N=C(N)N)n1 — outcome as called in the assay?
## Result false

====

Test: S16 Schwann cell PMP22 intronic element firefly luciferase assay (AID 624032); further: nearly all actives have a fitted effect of over 30% in size
Settings: S16 rat Schwann cells, PMP22 element FLuc, 24 h; series mostly up to 57.5 µM
Results filed as inconclusive are left out. Active and inactive are the calls of the source. Calls follow the shape of the dose curve; as a rule, active = well fitted inhibition curve with a large enough effect; inconclusive = small, poorly fitted or top-dose-only effect; inactive = no such curve, though single readings can be large or run the other way.
Valid outcomes are listed here; reply with one: 1.0 = active, 0.0 = inactive

// below: answered molecules
| MOLECULE | GROUP |
| --- | --- |
| Oc1c(Cl)cc(Cl)cc1Sc1cc(Cl)cc(Cl)c1O | 1.0 |
| CN1CCN(CCCN2c3ccccc3Sc3ccc(S(=O)(=O)N(C)C)cc32)CC1 | 0.0 |
| O=C(N/N=C/c1ccccc1O)c1ccncc1 | 0.0 |

## Task Look up the recorded call for CN(C)CCOc1ccccc1Cc1ccccc1 in this test.
## Result 0.0

## Task Fill in: this test's call for NC(=O)C(=O)N/N=C/c1ccc([N+](=O)[O-])o1 is ___
## Result 1.0

## Task Called result for Cc1c(N(C)CS(=O)(=O)O)c(=O)n(-c2ccccc2)n1C
## Result 0.0

====

Test: A High-Content qHTS Against Drug Library for the Identification of Small Molecules that Inhibit DYT1 Early Onset Primary Dystonia-Associated Cell Pathology (AID 1645839)
Conditions: HEK293 Flp-In EGFP-delE TorsinA, punctate imaging, 48 h; series mostly up to 46.1 µM
Results filed as inconclusive are left out. The source made the active and inactive calls. Calls follow the shape of the full dose curve.
Entry note: the call must match one of true (active), false (inactive)

Known results for compounds:
| COMPOUND | GROUP |
| --- | --- |
| C[C@H](O)C(=O)Nc1c(I)c(C(=O)NC(CO)CO)c(I)c(C(=O)NC(CO)CO)c1I | false |
| NC(CO)(CO)CO | false |
| Cc1cccc(C)c1NC(=O)CN1CCN(CCCC(c2ccc(F)cc2)c2ccc(F)cc2)CC1 | false |
| Cc1ccc(Nc2c(F)cccc2Cl)c(CC(=O)O)c1 | false |
| CN1CCC[C@@H]1c1cccnc1 | false |

## Task Test call, this compound: CC(=O)OCC(=O)[C@@]12OC(C)(C)O[C@@H]1C[C@H]1[C@@H]3C[C@H](F)C4=CC(=O)C=C[C@]4(C)[C@@]3(F)[C@@H](O)C[C@@]12C
## Result false

## Task Please let me know the test result on file for Cc1nc2n(c(=O)c1CCN1CCC(c3noc4cc(F)ccc34)CC1)CCC[C@H]2O .
## Result false

## Task I'd appreciate the recorded outcome for O=C1OC2(c3ccc(O)cc3Oc3cc(O)ccc32)c2ccccc21 from this test.
## Result true

## Task Give the logged outcome of this assay for the following compound: Cc1ccc(C(=O)C(C)CN2CCCCC2)cc1 (stereo not given)
## Result false

## Task Please state the recorded outcome for this compound: COC1=CC(=O)C[C@@H](C)[C@]12Oc1c(Cl)c(OC)cc(OC)c1C2=O
## Result false

====

System: Dd2
Assay: qHTS profiling for inhibitors of Plasmodium falciparum proliferation (AID 504749); further: nearly all actives have a fitted effect of over 60% in size
Conditions: P. falciparum in erythrocytes, SYBR Green DNA, 72 h; series mostly up to 28.7 µM
Results filed as inconclusive are left out. The source made the active and inactive calls. Calls come from the whole dose curve; as a rule, active = well fitted inhibition curve with a large enough effect; inconclusive = small, poorly fitted or top-dose-only effect; inactive = flat fitted curve, though single readings scatter.
The reply should be one of these categories: active, inactive

Reference set, count: 4
| COMPOUND | GROUP |
| --- | --- |
| COCc1c(C(C)C)nc(C(C)C)c(/C=C/[C@@H](O)C[C@@H](O)CC(=O)O)c1-c1ccc(F)cc1 | inactive |
| Oc1c(Cl)cc(Cl)cc1Sc1cc(Cl)cc(Cl)c1O | inactive |
| O=c1c(-c2ccccc2)c1-c1ccccc1 | active |
| COc1cc2c(cc1OC)C(=O)C(CC1CCN(Cc3ccccc3)CC1)C2 (stereo unspecified) | active |

## Task Which outcome was assigned to COc1cc(C(=S)N2CCOCC2)cc(OC)c1OC in this test?
## Result inactive

## Task Hi, sorry to bother you, what did the test record for O=C(O)CNC(=O)c1ccccc1 ?
## Result inactive

====

Target: Cytochrome P450 2C19 (Homo sapiens) (UniProt P33261)
Sequence (P33261 whole entry, looked up): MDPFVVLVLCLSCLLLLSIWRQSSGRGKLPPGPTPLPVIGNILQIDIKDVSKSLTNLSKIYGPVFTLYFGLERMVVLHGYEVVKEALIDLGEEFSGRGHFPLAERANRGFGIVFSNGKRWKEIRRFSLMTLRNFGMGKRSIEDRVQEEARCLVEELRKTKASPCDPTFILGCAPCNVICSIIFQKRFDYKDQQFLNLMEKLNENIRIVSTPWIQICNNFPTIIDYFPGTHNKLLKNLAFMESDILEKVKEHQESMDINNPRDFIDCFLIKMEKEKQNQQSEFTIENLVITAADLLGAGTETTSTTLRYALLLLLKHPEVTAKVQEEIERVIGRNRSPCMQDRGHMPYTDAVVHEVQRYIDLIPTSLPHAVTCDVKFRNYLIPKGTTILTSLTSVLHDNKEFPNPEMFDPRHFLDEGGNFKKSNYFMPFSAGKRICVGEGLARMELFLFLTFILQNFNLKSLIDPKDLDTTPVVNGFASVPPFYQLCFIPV
Experiment: qHTS Assay for Inhibitors and Substrates of Cytochrome P450 2C19 (AID 899); further: nearly all actives have a fitted effect of over 60% in size
Details: recombinant CYP2C19, luciferin-H EGE luminescence; series mostly up to 57.1 µM
Results filed as inconclusive are left out. Active and inactive are the calls of the source. Calls come from the whole dose curve; as a rule, active = well fitted inhibition curve with a large enough effect; inconclusive = small, poorly fitted or top-dose-only effect; inactive = no such curve, though single readings can be large or run the other way.
I would appreciate it if you answered using one of these outcomes: yes (1) for active, no (0) for inactive

Reference set (3 entries):
| CHEMICAL SMILES | GROUP |
| --- | --- |
| COc1cc(-c2ccc(=O)[nH]n2)ccc1OC(F)F | no (0) |
| COc1c(C)c2c(c(O)c1C/C=C(\C)CCC(=O)O)C(=O)OC2 | no (0) |
| CCCn1c(=O)[nH]c(=O)c2[nH]cnc21 | no (0) |

Please look at the following compound next.
## Task Answer briefly: the call reported for O=C(COc1ccc(Cl)cc1)N1CCN(Cc2ccc3c(c2)OCO3)CC1 in this assay.
## Result yes (1)
